Where these numbers come from: patent US6346402B1

# Test system: (S)-α-phenethylamine:pyruvate transaminase
# ASSAY_SUMMARY: Substrate specificity for amino group receptors (acetophenone quantified by HPLC)
# Assay type: biochemical, Pseudomonas sp. KNK425
# TEST_SETTINGS: ketone compound as amino group receptor; donor (S)-α-phenethylamine; same manner as Example 5; Table 5
Relative Activity (%) strictly less than 20% = T. Otherwise F.

[[record]]
molecule = "CC(=O)c1ccc(Cl)cc1"
category = "F"

[[record]]
molecule = "CC(=O)c1ccccn1"
category = "F"

[[record]]
molecule = "CC(=O)c1ccco1"
category = "T"

[[record]]
molecule = "CC(=O)c1ccccc1O [2′-Hydroxyacetophenone]"
category = "F"

[[record]]
molecule = "CC(=O)c1cnccn1"
category = "F"


From here, focus on the item given below.
Relative Activity (%) under 20%? Item: `COc1ccc(CCC(C)=O)cc1`
F

* * *

# System: (S)-α-phenethylamine:pyruvate transaminase
# ASSAY_SUMMARY: Substrate specificity for amino group receptors (acetophenone quantified by HPLC)
# Type: biochemical, Pseudomonas sp. KNK425
# TEST_SETTINGS: compound as amino group receptor; donor (S)-α-phenethylamine; same manner as Example 5; Table 6
This section presents molecules with their documented Relative Activity (%) values.
Entry rule: numbers only, all in %.

Relative Activity (%) for CC(=O)COc1ccccc1 [Phenoxy-2-propanone] ?
46

* * *

Below is a list of entries, each paired with its recorded Relative Activity (%) value.
# System: (S)-α-phenethylamine:pyruvate transaminase
# ASSAY_SUMMARY: Substrate specificity for amino group receptors (acetophenone quantified by HPLC)
# Type: biochemical, Pseudomonas sp. KNK425
# TEST_SETTINGS: ketone compound as amino group receptor; donor (S)-α-phenethylamine; same manner as Example 5; Table 5
Just the number in %, nothing appended.

Examples with their reported Relative Activity (%) follow.
[[record]]
compound = "CCC(=O)Cc1ccccc1"
quantity_measured = "Relative Activity (%)"
observed_measurement = 5

[[record]]
compound = "CC(=O)c1ccncc1"
quantity_measured = "Relative Activity (%)"
observed_measurement = 8

[[record]]
compound = "CC(=O)CCc1ccccc1"
quantity_measured = "Relative Activity (%)"
observed_measurement = 70

[[record]]
compound = "CC(=O)c1cccnc1"
quantity_measured = "Relative Activity (%)"
observed_measurement = 14

[[record]]
compound = "COc1ccc(CC(C)=O)cc1"
quantity_measured = "Relative Activity (%)"
observed_measurement = 12


Attention now turns to another entry.
For the compound shown here, `CC(=O)Cc1cccc(C(F)(F)F)c1` , give the reported Relative Activity (%).
60

* * *

# Tested on: (S)-α-phenethylamine:pyruvate transaminase
# ASSAY_SUMMARY: Substrate specificity for amino group donors (dabsylated alanine quantified by HPLC)
# Type: biochemical, Pseudomonas sp. KNK425
# TEST_SETTINGS: substance as amino group donor; amino group receptor pyruvic acid; Table 1
QUANTITY_MEASURED: Relative Activity (%)
// return numeric value only (unit: %, not printed)

Sample records with Relative Activity (%):
[[record]]
compound = "NCCCCC(N)C(=O)O (racemic) [DL-Lysine]"
system_name = "(S)-α-phenethylamine:pyruvate transaminase"
observed_measurement = 0

[[record]]
compound = "NCC(=O)O [Glycine]"
system_name = "(S)-α-phenethylamine:pyruvate transaminase"
observed_measurement = 0


Field request: Relative Activity (%) | item: C[C@H](N)c1ccccc1 [(S)-α-Phenethylamine]
100

Relative Activity (%) lookup needed for NC(CCC(=O)O)C(=O)O (racemic) [DL-Glutamic Acid] , thanks.
0

Bench note: what Relative Activity (%) did Cl.N [Ammonium Chloride] show?
0

// Relative Activity (%) lookup, key: N[C@@H](CC(=O)O)C(=O)O [L-Aspartic Acid]
0
